System: MIA PaCa-2
Protocol Description: Cytotoxicity against human MIA PaCa-2 cells assessed as reduction in cell viability after 48 hrs by CellTiter-Glo assay
Format: functional, cell-based
Cond: MIA PaCa-2, 48 h
Assignment: determine reported pIC50 for the given molecules.
For clarity, pIC50 is expressed as the negative log10 of concentration in mol/L.

Recorded result, `NS(=O)(=O)c1ccc(Cc2c(-c3cccc(-c4ccccc4)c3)nn(-c3nc(C(=O)O)cs3)c2CC2CC2)c(F)c1` , pIC50: 5.24

Recorded result, `Cc1ccc(C#Cc2cc(-c3nn(-c4nc(C(=O)O)cs4)c(CC4CC4)c3Cc3ccc(S(N)(=O)=O)c(F)c3)ccc2F)s1` , pIC50: 6.59

Recorded result, `NS(=O)(=O)c1ccc(Cc2c(-c3cccc(C#Cc4ccc(C5CC5)s4)c3)nn(-c3nc(C(=O)O)cs3)c2CCC2CC2)cc1F` , pIC50: 6.58

Recorded result, `CC(C)c1ccc(C#Cc2cccc(-c3nn(-c4nc(C(=O)O)cs4)c(CC4CC4)c3Cc3ccc(S(N)(=O)=O)c(F)c3)c2)s1` , pIC50: 6.23

====

Assignment: determine reported IC50 for the given molecules.
System: MIA PaCa-2
Protocol Description: Cytotoxicity against human MIA PaCa-2 cells assessed as reduction in cell viability after 48 hrs by CellTiter-Glo assay
Format: functional, cell-based
Cond: MIA PaCa-2, 48 h
Numeric only. Scale: nM

Recorded result, `NS(=O)(=O)c1ccc(Cc2c(-c3ccc(F)c(C#CCC4CCCC4)c3)nn(-c3nc(C(=O)O)cs3)c2CC2CC2)cc1F` , IC50: 848

Recorded result, `NS(=O)(=O)c1ccc(Cc2c(-c3ccc(F)c(C#Cc4cccs4)c3)nn(-c3nc(C(=O)O)cs3)c2CC2CC2)cc1F` , IC50: 268

Recorded result, `NS(=O)(=O)c1ccc(Cc2c(-c3ccc(F)c(C#CC4CCC4)c3)nn(-c3nc(C(=O)O)cs3)c2CC2CC2)cc1F` , IC50: 573

Recorded result, `NS(=O)(=O)c1ccc(Cc2c(-c3cccc(C#Cc4ccc(C5CC5)s4)c3)nn(-c3nc(C(=O)O)cs3)c2CC2CC2)cc1F` , IC50: 342

====

Protocol Description: Cmax in CD-1 mouse at 10 mg/kg, iv and measured up to 24 hrs by LC/MS-MS analysis
Format: ADME, organism-based
Design: route intravenous, dose 10 mg/kg, time <=24
Cond: in vivo
Measured Attribute: log10 of Cmax (log10 of the value in ng/mL)
On a log10 scale: recorded Cmax, unit ng/mL.

Recorded result, `Cc1ccc(C#Cc2cc(-c3nn(-c4nc(C(=O)O)cs4)c(CC4CC4)c3Cc3ccc(S(N)(=O)=O)c(F)c3)ccc2F)s1` , log10 of Cmax: 4.62

Recorded result, `Cc1ccc(C#Cc2cc(-c3nn(-c4nc(C(=O)O)cs4)c(CC4CC4)c3Cc3ccc(S(N)(=O)=O)c(F)c3)ccc2F)o1` , log10 of Cmax: 3.68

Recorded result, `Cc1cnc(C#Cc2cc(-c3nn(-c4nc(C(=O)O)cs4)c(CC4CC4)c3Cc3ccc(S(N)(=O)=O)c(F)c3)ccc2F)s1` , log10 of Cmax: 3.52

Recorded result, `Cc1ncc(C#Cc2cc(-c3nn(-c4nc(C(=O)O)cs4)c(CC4CC4)c3Cc3ccc(S(N)(=O)=O)c(F)c3)ccc2F)s1` , log10 of Cmax: 3.74

Recorded result, `Cc1ccc(C#Cc2cccc(-c3nn(-c4nc(C(=O)O)cs4)c(CCC4CC4)c3Cc3ccc(S(N)(=O)=O)c(F)c3)c2)s1` , log10 of Cmax: 4.76

====

Assignment: determine reported pIC50 for the given compounds.
System: L-lactate dehydrogenase A chain (Homo sapiens)
Protocol Description: Inhibition of recombinant human LDHA using sodium pyruvate as substrate preincubated for 5 mins followed by diaphorase/resazurin addition and measured after 20 mins by fluorescence based assay
For clarity, pIC50 is expressed as the negative log10 of concentration in mol/L.

Recorded result, `Cc1cnc(C#Cc2cccc(-c3nn(-c4nc(C(=O)O)cs4)c(CC4CC4)c3Cc3ccc(S(N)(=O)=O)c(F)c3)c2)s1` , pIC50: 7.77

Recorded result, `Cc1ccc(/C=C/c2cccc(-c3nn(-c4nc(C(=O)O)cs4)c(CC4CC4)c3Cc3ccc(S(N)(=O)=O)c(F)c3)c2)s1` , pIC50: 7.28

Recorded result, `NS(=O)(=O)c1ccc(Cc2c(-c3ccc(F)c(C#CC4CC4)c3)nn(-c3nc(C(=O)O)cs3)c2CC2CC2)cc1F` , pIC50: 8.05

Recorded result, `NS(=O)(=O)c1ccc(Cc2c(-c3ccc(F)c(C#CC(F)F)c3)nn(-c3nc(C(=O)O)cs3)c2CC2CC2)cc1F` , pIC50: 7.82

Recorded result, `Cc1ccc(C#Cc2cc(-c3nn(-c4nc(C(=O)O)cs4)c(CC4CC4)c3Cc3ccc(S(N)(=O)=O)c(F)c3)ccc2F)o1` , pIC50: 7.33

Recorded result, `Cn1cncc1C#Cc1cc(-c2nn(-c3nc(C(=O)O)cs3)c(CC3CC3)c2Cc2ccc(S(N)(=O)=O)c(F)c2)ccc1F` , pIC50: 8.10

Recorded result, `NS(=O)(=O)c1ccc(Cc2c(-c3ccc(F)c(C#CCN4CCOCC4)c3)nn(-c3nc(C(=O)O)cs3)c2CC2CC2)cc1F` , pIC50: 6.97

====

Assignment: determine reported IC50 for the given molecules.
System: L-lactate dehydrogenase A chain (Homo sapiens, UniProt P00338)
Protocol Description: Inhibition of LDHA in human A673 cells assessed as decrease in lactate production incubated for 2 hrs by lactate oxidase-coupled fluorescence based assay
Assay type: cell-based
Cond: a673
Numeric only. Scale: nM

Recorded result, `Cc1nc(C#Cc2cccc(-c3nn(-c4nc(C(=O)O)cs4)c(CC4CC4)c3Cc3ccc(S(N)(=O)=O)c(F)c3)c2)cs1` , IC50: 1170

Recorded result, NS(=O)(=O)c1ccc(Cc2c(-c3ccc(F)c(C#CC4CCOC4)c3)nn(-c3nc(C(=O)O)cs3)c2CC2CC2)cc1F (configuration not stated) , IC50: 1270

====

Assignment: determine reported IC50 for the given molecules.
System: L-lactate dehydrogenase A chain (Homo sapiens, UniProt P00338)
Protocol Description: Inhibition of GS[HiBiT]GS-tagged LDHA (unknown origin) expressed in HEK-293T cells measured after 1 hr by […]
Format: cell-based
Numeric only. Scale: µM

Recorded result, `NS(=O)(=O)c1ccc(Cc2c(-c3cccc(C#CC4CCCC4)c3)nn(-c3nc(C(=O)O)cs3)c2CC2CC2)cc1F` , IC50: 0.089

Recorded result, `CC(C)c1ccc(C#Cc2cccc(-c3nn(-c4nc(C(=O)O)cs4)c(CC4CC4)c3Cc3ccc(S(N)(=O)=O)c(F)c3)c2)s1` , IC50: 0.179

Recorded result, `NS(=O)(=O)c1ccc(Cc2c(-c3ccc(F)c(C#CCN4CCCC4)c3)nn(-c3nc(C(=O)O)cs3)c2CC2CC2)cc1F` , IC50: 0.267

Recorded result, `Cn1cncc1C#Cc1cc(-c2nn(-c3nc(C(=O)O)cs3)c(CC3CC3)c2Cc2ccc(S(N)(=O)=O)c(F)c2)ccc1F` , IC50: 0.299

====

System: L-lactate dehydrogenase A chain (Homo sapiens, UniProt P00338)
Protocol Description: Inhibition of LDHA in human MIA PaCa-2 cells assessed as decrease in lactate production incubated for 2 hrs by lactate oxidase-coupled fluorescence based assay
Assay type: cell-based
Measured Attribute: pIC50
For clarity, pIC50 is expressed as the negative log10 of concentration in mol/L.

Recorded result, `NS(=O)(=O)c1ccc(Cc2c(-c3ccc(F)c(-c4ccccc4)c3)nn(-c3nc(C(=O)O)cs3)c2CC2CC2)cc1` , pIC50: 5.91

Recorded result, `CC#Cc1cccc(-c2nn(-c3nc(C(=O)O)cs3)c(CC3CC3)c2Cc2ccc(S(N)(=O)=O)c(F)c2)c1` , pIC50: 6.28

Recorded result, `NS(=O)(=O)c1ccc(Cc2c(-c3cccc(-c4ccccc4)c3)nn(-c3nc(C(=O)O)cs3)c2CC2CC2)c(F)c1` , pIC50: 5.19

Recorded result, `NS(=O)(=O)c1ccc(Cc2c(-c3ccc(F)c(C#CC4CCC4)c3)nn(-c3nc(C(=O)O)cs3)c2CC2CC2)cc1F` , pIC50: 6.37

Recorded result, `Cc1ccc(C#Cc2cc(-c3nn(-c4nc(C(=O)O)cs4)c(CCC4CC4)c3Cc3ccc(S(N)(=O)=O)c(F)c3)ccc2F)s1` , pIC50: 6.71

Recorded result, `NS(=O)(=O)c1ccc(Cc2c(-c3cccc(-c4ccccc4)c3)nn(-c3nc(C(=O)O)cs3)c2CC(F)(F)F)cc1` , pIC50: 4.71

Recorded result, `NS(=O)(=O)c1ccc(Cc2c(-c3ccc(F)c(C#CC4CC4)c3)nn(-c3nc(C(=O)O)cs3)c2CC2CC2)cc1F` , pIC50: 6.26

Recorded result, `NS(=O)(=O)c1ccc(Cc2c(-c3ccc(F)c(C#CC4CCCC4)c3)nn(-c3nc(C(=O)O)cs3)c2CC2CC2)cc1F` , pIC50: 6.48

Recorded result, `Cc1ncc(C#Cc2cccc(-c3nn(-c4nc(C(=O)O)cs4)c(CCC4CC4)c3Cc3ccc(S(N)(=O)=O)c(F)c3)c2)s1` , pIC50: 6.48

Recorded result, `Cc1ccc(C#Cc2cccc(-c3nn(-c4nc(C(=O)O)cs4)c(CCC4CC4)c3Cc3ccc(S(N)(=O)=O)c(F)c3)c2)o1` , pIC50: 6.38

Recorded result, `Cn1cncc1C#Cc1cc(-c2nn(-c3nc(C(=O)O)cs3)c(CC3CC3)c2Cc2ccc(S(N)(=O)=O)c(F)c2)ccc1F` , pIC50: 5.97

Recorded result, `Cc1cc(C#Cc2cccc(-c3nn(-c4nc(C(=O)O)cs4)c(CC4CC4)c3Cc3ccc(S(N)(=O)=O)c(F)c3)c2)c(C)s1` , pIC50: 6.66

Recorded result, `NS(=O)(=O)c1ccc(Cc2c(-c3cccc(-c4ccccc4)c3)nn(-c3nc(C(=O)O)cs3)c2C2(C(F)(F)F)CC2)cc1` , pIC50: 4.89

Recorded result, `Cc1ncc(C#Cc2cc(-c3nn(-c4nc(C(=O)O)cs4)c(CC4CC4)c3Cc3ccc(S(N)(=O)=O)c(F)c3)ccc2F)s1` , pIC50: 6.06

Recorded result, `Cc1cnc(C#Cc2cccc(-c3nn(-c4nc(C(=O)O)cs4)c(CCC4CC4)c3Cc3ccc(S(N)(=O)=O)c(F)c3)c2)s1` , pIC50: 6.38
